Can you tell me IC50 for the items I'm about to list?
Tested on: drug-resistant cell lines of Table 3
protocol.text: Cell line growth retardation assay, resistant cohort
Assay type: cell-based, Human
measurement.parameters: Homo sapiens, 144 h; arithmetic mean of IC50s over the resistant cohort of Table 3, 6 days growth; read-out: AvgRes IC50

IN: # input compound: COc1cccc(-c2ncc3snc(O[C@H](Cc4ccccc4OCc4ccnc(OCCC(F)(F)F)n4)C(=O)O)c3c2-c2ccc(OCCN3CCN(C)CC3)c(Cl)c2C)c1 (atropisomer, axis not shown) [Compound 57] ; wanted: its IC50
OUT: > 5 µM

IN: # input compound: Cc1c(-c2c(C3CCC3)ncc3snc(O[C@H](Cc4ccccc4OCc4ccnc(C5CCC5)n4)C(=O)O)c23)ccc(OCCN2CCN(C)CC2)c1Cl (atropisomer, axis not shown) [Compound 104] ; wanted: its IC50
OUT: > 5 µM

IN: # input compound: Cc1cc2cccc(-c3ncc4snc(O[C@H](Cc5ccccc5OCc5ccnn5CC(F)(F)F)C(=O)O)c4c3-c3ccc(OCCN4CCN(C)CC4)c(Cl)c3C)c2[nH]1 (atropisomer, axis not shown) [Compound 17] ; wanted: its IC50
OUT: > 5 µM

IN: # input compound: COc1cccc(-c2ncc3snc(O[C@H](Cc4ccccc4OCc4ccnn4CC(F)(F)F)C(=O)O)c3c2-c2ccc(OCCN3CCN(C)CC3)c(Cl)c2C)c1 (atropisomer, axis not shown) [Compound 23] ; wanted: its IC50
OUT: > 5 µM

IN: # input compound: COc1cccc(-c2ncc3snc(O[C@H](Cc4ccccc4OCc4ccnc(N5CCC(OC)CC5)n4)C(=O)O)c3c2-c2ccc(OCCN3CCN(C)CC3)c(Cl)c2C)c1 (atropisomer, axis not shown) [Compound 70] ; wanted: its IC50
OUT: > 5 µM

###

Can you tell me Kd for the items I'm about to list?
target.under.test: MCL1 (Homo sapiens)
Sequence (Q07820 whole entry): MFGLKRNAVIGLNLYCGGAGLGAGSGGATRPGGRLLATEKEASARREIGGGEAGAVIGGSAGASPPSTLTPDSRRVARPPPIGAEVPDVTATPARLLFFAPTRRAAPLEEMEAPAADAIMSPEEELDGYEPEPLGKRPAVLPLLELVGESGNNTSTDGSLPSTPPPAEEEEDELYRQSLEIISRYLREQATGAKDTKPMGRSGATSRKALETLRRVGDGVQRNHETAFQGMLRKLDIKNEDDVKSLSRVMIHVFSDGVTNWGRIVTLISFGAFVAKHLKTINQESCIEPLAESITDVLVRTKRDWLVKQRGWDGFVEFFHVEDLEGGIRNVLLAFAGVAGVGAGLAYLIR
protocol.text: MCL1 affinity assay (competition binding, qPCR readout)
measurement.parameters: recombinant MCL1, 11-point 3-fold dilution series

IN: # input compound: Cc1c(-c2c(C3CCC3)ncc3snc(O[C@H](Cc4ccccc4OCc4ccnc(-c5ccncc5)n4)C(=O)O)c23)ccc(OCCN2CCN(C)CC2)c1Cl (atropisomer, axis not shown) ; wanted: its Kd
OUT: > 1500 nM

IN: # input compound: COc1ccc(F)cc1-c1nccc(COc2ccccc2C[C@@H](Oc2nsc3cnc(C4CCC4)c(-c4ccc(OCCN5CCN(C)CC5)c(Cl)c4C)c23)C(=O)O)n1 (atropisomer, axis not shown) ; wanted: its Kd
OUT: ≤ 100 nM

IN: # input compound: Cc1c(-c2c(C3CCC3)ncc3snc(O[C@H](Cc4ccccc4OCc4ccnc(-c5cccc(N6CCOCC6)c5)n4)C(=O)O)c23)ccc(OCCN2CCN(C)CC2)c1Cl (atropisomer, axis not shown) ; wanted: its Kd
OUT: ≤ 100 nM

IN: # input compound: Cc1c(-c2c(-c3cccc4c3CCC4)ncc3snc(O[C@H](Cc4ccccc4OCc4ccnn4CC(F)(F)F)C(=O)O)c23)ccc(OCCN2CCN(C)CC2)c1Cl (atropisomer, axis not shown) ; wanted: its Kd
OUT: > 1500 nM

IN: # input compound: COc1ccccc1-c1nccc(COc2ccccc2C[C@@H](Oc2nsc3cnc(-c4cccc(F)c4)c(-c4ccc(OCCN5CCN(C)CC5)c(Cl)c4C)c23)C(=O)O)n1 (atropisomer, axis not shown) ; wanted: its Kd
OUT: ≤ 100 nM

###

Can you tell me IC50 for the items I'm about to list?
Test system: drug-resistant cell lines of Table 3
protocol.text: Cell line growth retardation assay, resistant cohort
Assay type: cell-based, Human
measurement.parameters: Homo sapiens, 144 h; arithmetic mean of IC50s over the resistant cohort of Table 3, 6 days growth; read-out: AvgRes IC50

IN: # input compound: Cc1c(-c2c(-c3cccc4[nH]c(C(F)(F)F)cc34)ncc3snc(O[C@H](Cc4ccccc4OCc4ccnn4CC(F)(F)F)C(=O)O)c23)ccc(OCCN2CCN(C)CC2)c1Cl (atropisomer, axis not shown) ; wanted: its IC50
OUT: > 5 µM

IN: # input compound: Cc1c(-c2cc(-c3nccc4cc(Cl)ccc34)cc3snc(O[C@H](Cc4ccccc4OCc4ccnn4CC(F)(F)F)C(=O)O)c23)ccc(OCCN2CCN(C)CC2)c1Cl ; wanted: its IC50
OUT: > 5 µM

IN: # input compound: COc1ccc(F)cc1-c1nccc(COc2ccccc2C[C@@H](Oc2nsc3cnc(C4CCC4)c(-c4ccc(OCCN5CCN(C)CC5)c(Cl)c4C)c23)C(=O)O)n1 (atropisomer, axis not shown) ; wanted: its IC50
OUT: > 5 µM

###

Can you tell me Kd for the items I'm about to list?
target.under.test: MCL1 (Homo sapiens)
protocol.text: MCL1 affinity assay (competition binding, qPCR readout)
measurement.parameters: recombinant MCL1, 11-point 3-fold dilution series

IN: # input compound: CCn1cc(-c2ncc3snc(O[C@H](Cc4ccccc4OCc4ccnc(-c5ccccc5OC)n4)C(=O)O)c3c2-c2ccc(OCCN3CCN(C)CC3)c(Cl)c2C)cn1 (atropisomer, axis not shown) ; wanted: its Kd
OUT: 101 to 500 nM

IN: # input compound: COc1ccccc1-c1nccc(COc2ccccc2C[C@@H](Oc2nsc3cnc(C4CC4)c(-c4ccc(OCCN(C)C)c(Cl)c4C)c23)C(=O)O)n1 (atropisomer, axis not shown) ; wanted: its Kd
OUT: ≤ 100 nM

IN: # input compound: COc1cc(-c2ncc3snc(O[C@H](Cc4ccccc4OCc4ccnc(-c5ccccc5OC)n4)C(=O)O)c3c2-c2ccc(OCCN3CCN(C)CC3)c(Cl)c2C)ccc1F (atropisomer, axis not shown) ; wanted: its Kd
OUT: 101 to 500 nM

IN: # input compound: Cc1cc2cccc(-c3ncc4snc(O[C@H](Cc5ccccc5OCc5ccnn5CC(F)(F)F)C(=O)O)c4c3-c3ccc(OCCN4CCN(C)CC4)c(Cl)c3C)c2[nH]1 (atropisomer, axis not shown) ; wanted: its Kd
OUT: 501 to 1500 nM

IN: # input compound: CCOC(=O)[C@@H](Cc1ccccc1OCc1ccnc(-c2ccccc2OC)n1)Oc1nsc2cnc(C3CCC3)c(-c3ccc(OCCN4CCN(C)CC4)c(Cl)c3C)c12 ; wanted: its Kd
OUT: > 1500 nM

IN: # input compound: COc1cccc(-c2ncc3snc(O[C@H](Cc4ccccc4OCc4ccnc(OCCC(F)(F)F)n4)C(=O)O)c3c2-c2ccc(OCCN3CCN(C)CC3)c(Cl)c2C)c1 (atropisomer, axis not shown) ; wanted: its Kd
OUT: ≤ 100 nM

IN: # input compound: COc1ccccc1-c1nccc(COc2ccccc2C[C@@H](Oc2nsc3cnc(C4CCC4)c(-c4ccc(OCCN5CCN(C)CC5)c(Cl)c4C)c23)C(=O)O)n1 (atropisomer, axis not shown) ; wanted: its Kd
OUT: ≤ 100 nM

IN: # input compound: Cc1c(-c2c(-c3cnn(C)c3)ncc3snc(O[C@H](Cc4ccccc4OCc4ccnn4CC(F)(F)F)C(=O)O)c23)ccc(OCCN2CCN(C)CC2)c1Cl (atropisomer, axis not shown) ; wanted: its Kd
OUT: 501 to 1500 nM

IN: # input compound: COc1ccccc1-c1nccc(COc2ccccc2C[C@@H](Oc2nsc3cnc(-c4ccc(F)c(Cl)c4)c(-c4ccc(OCCN5CCN(C)CC5)c(Cl)c4C)c23)C(=O)O)n1 (atropisomer, axis not shown) ; wanted: its Kd
OUT: ≤ 100 nM
